- study-target: VLDL/CRP complex (Homo sapiens, UniProt P02741)
- Sequence (P02741 19-224, one chain of several): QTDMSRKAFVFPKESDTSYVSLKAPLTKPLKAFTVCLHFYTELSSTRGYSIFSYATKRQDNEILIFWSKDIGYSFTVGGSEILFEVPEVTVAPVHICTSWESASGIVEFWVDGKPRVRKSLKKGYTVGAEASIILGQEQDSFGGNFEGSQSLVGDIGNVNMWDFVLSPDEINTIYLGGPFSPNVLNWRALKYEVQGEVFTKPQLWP
- assay-protocol: Inhibition of VLDL/CRP complex formation (Ca2+-dependent turbidity change)
- test-parameters: FIG. 40
pIC50: −log10 of the molar value.
measure: pIC50

In [3]: df
Out[3]:
              compound                              study_target  measure  reported
0  NCCCCCC(=O)O [EACA]  VLDL/CRP complex (Homo sapiens, UniProt P02741)    pIC50      2.68

* * *

- study-target: VLDL/CRP complex (Homo sapiens)
- assay-protocol: Calcium concentration dependence of formation of the VLDL/CRP complex
- test-parameters: FIG. 38; read-out: calcium concentration at which complex formation is half maximal
pEC50: −log10 of the molar value.
measure: pEC50

In [3]: df
Out[3]:
           molecule  measure  reported
0  [Ca+2] [calcium]    pEC50      2.30

Taken from patent US7179612B2.
